Tested on: STEME
measurementProtocol: B. Herbicidal post-emergence action on harmful plants (Tables B)
Format: in vivo, Stellaria media
testSettings: application rate 1280 g/ha; Table B6
Would you mind telling me the reported post-emergence activity against STEME of each entry?
Give just the numeric value; % need not be written.

Look at this molecule and give its reported post-emergence activity against STEME. COCc1nn(C)cc1C(=O)N1CCCC1Cc1c(F)cccc1Cl (single isomer, unassigned) 90

Look at this molecule and give its reported post-emergence activity against STEME. COCc1nn(C)cc1C(=O)N1CCCC1Cc1ccccc1Br (racemic) 90

Look at this molecule and give its reported post-emergence activity against STEME. COCc1nn(C)cc1C(=O)N1CCCC1Cc1ccccc1C (single isomer, unassigned) 90

Look at this molecule and give its reported post-emergence activity against STEME. COCc1nn(C)cc1C(=O)N1CCCC1Cc1c(F)cccc1F (single isomer, unassigned) 90

Look at this molecule and give its reported post-emergence activity against STEME. COCc1c(C(=O)N2CCCC2Cc2ccccc2F)cnn1C (single isomer, unassigned) 100

Look at this molecule and give its reported post-emergence activity against STEME. CCOCc1nn(C)cc1C(=O)N1CCC1Cc1ccccc1F (racemic) 90

Look at this molecule and give its reported post-emergence activity against STEME. COCc1nn(C)cc1C(=O)N1CCCC1Cc1ccc(F)cc1F (single isomer, unassigned) 90

Look at this molecule and give its reported post-emergence activity against STEME. Cn1cc(C(=O)N2CCC2Cc2c(F)cccc2Cl)c(COCC(F)F)n1 (racemic) 90

Look at this molecule and give its reported post-emergence activity against STEME. CNC(=O)n1cc(C(=O)N2CCCC2Cc2ccccc2F)c(COC)n1 (racemic) 90

Look at this molecule and give its reported post-emergence activity against STEME. Cn1ncc(C(=O)N2CCCC2Cc2ccccc2F)c1COCC(F)(F)F (single isomer, unassigned) 90

---

System: ALOMY
measurementProtocol: E. Herbicidal post-emergence action, weed and crop plants (Tables E)
Type: in vivo, Alopecurus myosuroides
testSettings: application rate 320 g/ha, visual assessment after ca. 3 weeks
Would you mind telling me the reported post-emergence activity against ALOMY in % of each entry?
Give just the numeric value; % need not be written.

Please state recorded post-emergence activity against ALOMY in % (tested on ALOMY) of COCc1c(C(=O)N2CCCC2Cc2ccccc2F)cnn1C (single isomer, unassigned) [Example I-157] 80

Please state recorded post-emergence activity against ALOMY in % (tested on ALOMY) of COCc1c(C(=O)N2CCCC2Cc2ccccc2Cl)cnn1C (racemic) [Example I-170] 80

Please state recorded post-emergence activity against ALOMY in % (tested on ALOMY) of CNC(=O)n1cc(C(=O)N2CCCC2Cc2ccccc2F)c(COC)n1 (racemic) [Example I-051] 80

Please state recorded post-emergence activity against ALOMY in % (tested on ALOMY) of Cn1cc(C(=O)N2CCCC2Cc2ccccc2F)c(COc2ccccc2)n1 (racemic) [Example I-006] 90

Please state recorded post-emergence activity against ALOMY in % (tested on ALOMY) of COCc1nn(C)cc1C(=O)N1CCCC1Cc1ccccc1F (single isomer, unassigned) [Example I-003] 80

---

Test system: AMARE
measurementProtocol: A. Herbicidal pre-emergence action on harmful plants (Tables A)
Type: in vivo, Amaranthus retroflexus
testSettings: application rate 1280 g/ha; visual grading after ca. 3 weeks vs untreated controls; 100% = plants have died off, 0% = as control plants
measuredEndpoint: pre-emergence activity against AMARE (%)
Give just the numeric value; % need not be written.

Please state recorded pre-emergence activity against AMARE (tested on AMARE) of Cn1ncc(C(=O)N2CCCC2Cc2ccccc2F)c1COCC(F)(F)F (single isomer, unassigned) 100

Please state recorded pre-emergence activity against AMARE (tested on AMARE) of COCc1nn(C)cc1C(=O)N1CCCC1Cc1ccccc1F (single isomer, unassigned) 90

Please state recorded pre-emergence activity against AMARE (tested on AMARE) of CC(C)COCc1nn(C)cc1C(=O)N1CCCC1Cc1cc(F)ccc1F (racemic) 100

Please state recorded pre-emergence activity against AMARE (tested on AMARE) of COCc1nn(Cc2ccccc2)cc1C(=O)N1CCCC1Cc1ccccc1F (racemic) 90

Please state recorded pre-emergence activity against AMARE (tested on AMARE) of COCc1nn(C)cc1C(=O)N1CCCC1Cc1cc(F)ccc1F (single isomer, unassigned) 90

Please state recorded pre-emergence activity against AMARE (tested on AMARE) of COCc1nn(C)cc1C(=O)N1CCCC1Cc1ccc(F)cc1F (single isomer, unassigned) 90

Please state recorded pre-emergence activity against AMARE (tested on AMARE) of COCc1nn(C)cc1C(=O)N1CCCC1Cc1ccccc1C (single isomer, unassigned) 90

Please state recorded pre-emergence activity against AMARE (tested on AMARE) of C=C(c1ccccc1F)C1CCCN1C(=O)c1cn(C)nc1COC (racemic) 90

Please state recorded pre-emergence activity against AMARE (tested on AMARE) of COCc1nn(C)cc1C(=O)N1CCCC1Cc1c(F)cccc1F (single isomer, unassigned) [Example I-082] 90

---

System: POAAN
measurementProtocol: B. Herbicidal post-emergence action on harmful plants (Tables B)
Type: in vivo, Poa annua
testSettings: application rate 1280 g/ha; Table B7a
measuredEndpoint: post-emergence activity against POAAN (%)
Give just the numeric value; % need not be written.

Look at this compound and give its reported post-emergence activity against POAAN. COCc1c(C(=O)N2CCCC2Cc2c(F)cccc2F)cnn1C (racemic) [Example I-124] 90

Look at this compound and give its reported post-emergence activity against POAAN. COCc1c(C(=O)N2CCCC2Cc2ccc(F)cc2F)cnn1C (racemic) [Example I-158] 100

Look at this compound and give its reported post-emergence activity against POAAN. COCc1nn(C)cc1C(=O)N1CCCC1Cc1cccc(F)c1F (single isomer, unassigned) [Example I-088] 90

Look at this compound and give its reported post-emergence activity against POAAN. Cn1cc(C(=O)N2CCC2Cc2ccccc2F)c(COCC(F)F)n1 (racemic) [Example I-108] 90

Look at this compound and give its reported post-emergence activity against POAAN. COCc1c(C(=O)N2CCCC2Cc2ccc(F)cc2F)cnn1C (single isomer, unassigned) [Example I-119] 90

Look at this compound and give its reported post-emergence activity against POAAN. COCc1nn(C)cc1C(=O)N1CCCC1Cc1ccccc1C (single isomer, unassigned) [Example I-084] 100

Look at this compound and give its reported post-emergence activity against POAAN. COCc1nn(C)cc1C(=O)N1CCCC1Cc1ccccc1Br (racemic) [Example I-018] 90

Look at this compound and give its reported post-emergence activity against POAAN. COCc1c(C(=O)N2CCCC2Cc2c(F)cccc2F)cnn1C (single isomer, unassigned) [Example I-126] 90

Look at this compound and give its reported post-emergence activity against POAAN. COCc1nn(C)cc1C(=O)N1CCCC1C(O)c1ccccc1F (single isomer, unassigned) [Example I-054] 90

Look at this compound and give its reported post-emergence activity against POAAN. Cn1cc(C(=O)N2CCCC2Cc2ccc(F)cc2F)c(COc2ccccc2)n1 (racemic) [Example I-008] 90

Look at this compound and give its reported post-emergence activity against POAAN. COCc1c(C(=O)N2CCCC2Cc2cc(F)ccc2F)cnn1C (single isomer, unassigned) [Example I-188] 90

Look at this compound and give its reported post-emergence activity against POAAN. COCc1nn(C)cc1C(=O)N1CCCC1Cc1cc(F)ccc1F (single isomer, unassigned) [Example I-071] 90

Look at this compound and give its reported post-emergence activity against POAAN. COCc1nn(C)cc1C(=O)N1CCCC1Cc1ccc(F)cc1F (single isomer, unassigned) [Example I-079] 90

Look at this compound and give its reported post-emergence activity against POAAN. C=C(c1ccccc1F)C1CCCN1C(=O)c1cn(C)nc1COC (racemic) [Example I-023] 90

Look at this compound and give its reported post-emergence activity against POAAN. COCc1c(C(=O)N2CCCC2Cc2cccc(F)c2F)cnn1C (single isomer, unassigned) [Example I-137] 90

Look at this compound and give its reported post-emergence activity against POAAN. CCOCc1nn(C)cc1C(=O)N1CCC1Cc1ccccc1F (racemic) [Example I-105] 90

Look at this compound and give its reported post-emergence activity against POAAN. COCc1nn2c(c1C(=O)N1CCCC1Cc1ccccc1F)CCC2 (racemic) [Example I-022] 90

Look at this compound and give its reported post-emergence activity against POAAN. Cn1cc(C(=O)N2CCCC2Cc2ccccc2F)c(COc2ccccc2)n1 (racemic) [Example I-006] 90

Look at this compound and give its reported post-emergence activity against POAAN. COCc1nn(C)cc1C(=O)N1CCCC1Cc1ccc(Cl)cc1Cl (racemic) [Example I-016] 90

Look at this compound and give its reported post-emergence activity against POAAN. COCc1c(C(=O)N2CCCC2Cc2ccccc2F)cnn1C (single isomer, unassigned) [Example I-157] 100

Look at this compound and give its reported post-emergence activity against POAAN. COCc1nn(C)cc1C(=O)N1CCCC1Cc1ccccc1C (racemic) [Example I-078] 90

Look at this compound and give its reported post-emergence activity against POAAN. COCc1nn(C)c(Cl)c1C(=O)N1CCCC1Cc1ccccc1F (single isomer, unassigned) [Example I-058] 90

Look at this compound and give its reported post-emergence activity against POAAN. Cn1ncc(C(=O)N2CCCC2Cc2ccccc2F)c1COCC(F)(F)F (racemic) [Example I-163] 100

Look at this compound and give its reported post-emergence activity against POAAN. COCc1nn(C)cc1C(=O)N1CCCC1Cc1c(F)cccc1F (single isomer, unassigned) [Example I-082] 100

Look at this compound and give its reported post-emergence activity against POAAN. COCc1c(C(=O)N2CCCC2Cc2ccccc2Cl)cnn1C (racemic) [Example I-170] 90

Look at this compound and give its reported post-emergence activity against POAAN. CCOCc1c(C(=O)N2CCCC2Cc2ccccc2F)cnn1C (single isomer, unassigned) [Example I-142] 90

Look at this compound and give its reported post-emergence activity against POAAN. Cn1ncc(C(=O)N2CCCC2Cc2ccccc2F)c1COCC(F)(F)F (single isomer, unassigned) [Example I-122] 90

Look at this compound and give its reported post-emergence activity against POAAN. COCc1nn(C)cc1C(=O)N1CCCC1C(C)c1ccccc1F (stereo not shown) [Example I-021] 90

Look at this compound and give its reported post-emergence activity against POAAN. CNC(=O)n1cc(C(=O)N2CCCC2Cc2ccccc2F)c(COC)n1 (racemic) [Example I-051] 90

Look at this compound and give its reported post-emergence activity against POAAN. COC(=O)c1nn(C)cc1C(=O)N1CCCC1Cc1ccc(F)cc1F (racemic) [Example I-096] 100

Look at this compound and give its reported post-emergence activity against POAAN. COCc1nn(C)cc1C(=O)N1CCCC1Cc1ncccc1F (racemic) [Example I-015] 90
